Origin of measurements: ChEMBL document CHEMBL1133557

# measured_on: Metabotropic glutamate receptor 2 (Rattus norvegicus, UniProt P31421)
# Sequence (P31421 whole entry): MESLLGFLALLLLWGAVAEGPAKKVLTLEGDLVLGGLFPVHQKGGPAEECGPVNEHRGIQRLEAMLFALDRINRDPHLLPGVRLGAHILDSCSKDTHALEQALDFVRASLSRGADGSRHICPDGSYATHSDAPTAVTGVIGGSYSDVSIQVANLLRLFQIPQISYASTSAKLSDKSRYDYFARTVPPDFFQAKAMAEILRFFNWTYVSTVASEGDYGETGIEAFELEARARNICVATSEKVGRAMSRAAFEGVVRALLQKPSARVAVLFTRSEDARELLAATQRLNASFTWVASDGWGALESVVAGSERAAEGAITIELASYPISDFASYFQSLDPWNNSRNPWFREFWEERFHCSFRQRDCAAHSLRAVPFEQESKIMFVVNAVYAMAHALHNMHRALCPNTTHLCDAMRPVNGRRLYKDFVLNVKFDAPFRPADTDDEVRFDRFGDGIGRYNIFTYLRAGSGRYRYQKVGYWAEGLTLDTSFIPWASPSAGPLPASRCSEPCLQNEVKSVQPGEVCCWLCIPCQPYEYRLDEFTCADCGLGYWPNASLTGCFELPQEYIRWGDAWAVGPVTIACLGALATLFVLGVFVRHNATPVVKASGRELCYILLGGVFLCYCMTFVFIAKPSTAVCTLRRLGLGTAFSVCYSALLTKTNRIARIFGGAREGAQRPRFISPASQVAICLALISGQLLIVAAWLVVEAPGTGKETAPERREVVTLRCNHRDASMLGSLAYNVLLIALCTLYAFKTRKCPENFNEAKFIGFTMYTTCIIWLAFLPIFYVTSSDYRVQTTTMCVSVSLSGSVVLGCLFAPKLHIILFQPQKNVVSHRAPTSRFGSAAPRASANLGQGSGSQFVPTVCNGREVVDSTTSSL
# experimental_protocol: Antagonist activity against Metabotropic glutamate receptor 2 expressed in CHO cells was evaluated in presence of 30 uM glutamic acid
# Assay type: functional, cell-based
# details: read-out: EC50 (the source's name)
pIC50: −log10 of the molar value.
measurement_label: pIC50

Exercise: What does the record list as pIC50 for N[C@@]1(C(=O)O)CC[C@@H]2[C@H]1[C@@]2(F)C(=O)O (stereo in doubt; (-)-11) ?
Key: < 4.00

Exercise: Entry N[C@@]1(C(=O)O)CC(=O)[C@@H]2[C@H]1[C@@]2(F)C(=O)O (stereo in doubt; (+)-14) please
Key: < 4.00

Exercise: And N[C@@]1(C(=O)O)CC(O)[C@@H]2[C@H]1[C@@]2(F)C(=O)O (mixture of isomers) ?
Key: < 4.00

Exercise: Subsequent entry: N[C@]1(C(=O)O)[C@H]2[C@@H](CC1(F)F)[C@@H]2C(=O)O (racemic)
Key: 4.44

====

# measured_on: Metabotropic glutamate receptor 3 (Rattus norvegicus, UniProt P31422)
# Sequence (P31422 whole entry): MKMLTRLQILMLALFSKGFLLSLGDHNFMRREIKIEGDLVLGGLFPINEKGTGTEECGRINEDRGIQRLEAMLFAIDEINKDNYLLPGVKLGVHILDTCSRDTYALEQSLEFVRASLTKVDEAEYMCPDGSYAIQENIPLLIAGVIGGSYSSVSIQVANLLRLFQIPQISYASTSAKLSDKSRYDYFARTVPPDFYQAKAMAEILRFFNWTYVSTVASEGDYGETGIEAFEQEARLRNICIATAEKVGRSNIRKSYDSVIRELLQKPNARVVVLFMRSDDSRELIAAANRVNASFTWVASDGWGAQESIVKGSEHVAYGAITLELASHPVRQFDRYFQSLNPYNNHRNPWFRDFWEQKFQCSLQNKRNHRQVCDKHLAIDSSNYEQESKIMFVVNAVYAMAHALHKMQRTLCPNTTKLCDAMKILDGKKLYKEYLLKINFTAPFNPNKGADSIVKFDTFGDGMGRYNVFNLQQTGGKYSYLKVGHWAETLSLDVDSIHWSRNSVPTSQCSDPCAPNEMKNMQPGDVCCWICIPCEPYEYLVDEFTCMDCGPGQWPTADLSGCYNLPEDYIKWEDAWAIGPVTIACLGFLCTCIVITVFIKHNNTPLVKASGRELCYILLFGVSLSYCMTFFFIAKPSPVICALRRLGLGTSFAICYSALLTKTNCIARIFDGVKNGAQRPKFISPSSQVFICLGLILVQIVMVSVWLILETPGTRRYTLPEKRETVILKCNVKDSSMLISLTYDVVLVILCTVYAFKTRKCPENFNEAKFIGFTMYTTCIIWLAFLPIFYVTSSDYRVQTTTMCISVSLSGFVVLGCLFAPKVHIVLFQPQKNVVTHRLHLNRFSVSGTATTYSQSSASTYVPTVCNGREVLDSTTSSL
# experimental_protocol: Agonist potency against cloned Metabotropic glutamate receptor 3
# Type: functional
Record form. Attribute: pEC50. Fill in for each entry.
// scale note: pEC50 = -log10(conc_M); give the bare number

Exercise: // query pEC50 value for entry N[C@@]1(C(=O)O)CC[C@H]2[C@H](C(=O)O)[C@H]21
Key: 7.20

Exercise: Try this molecule next: N[C@]1(C(=O)O)[C@H]2[C@@H](C[C@@H]1F)[C@@H]2C(=O)O
Key: 7.34

Exercise: # iterate: N[C@@]1(C(=O)O)CC[C@@H]2[C@H]1[C@@]2(F)C(=O)O (stereo in doubt; (-)-11)
Key: 7.09

Exercise: Repeat with N[C@@]1(C(=O)O)CC(=O)[C@@H]2[C@H]1[C@@]2(F)C(=O)O (stereo in doubt; (+)-14)
Key: 8.68

====

# measured_on: Metabotropic glutamate receptor 2 (Rattus norvegicus)
# experimental_protocol: Agonist activity against Metabotropic glutamate receptor 2 expressed in CHO cells was evaluated by measuring forskolin-induced cyclic AMP formation
# Format: functional, cell-based
measurement_label: EC50 (nM)
Provide only the numeric value, understood in nM.

Exercise: Lookup: EC50 / Metabotropic glutamate receptor 2 (Rattus norvegicus) / N[C@@]1(C(=O)O)CC[C@@H]2[C@H]1[C@@]2(F)C(=O)O (stereo in doubt; (-)-11)
Key: 16.6

Exercise: Entry N[C@@]1(C(=O)O)CC[C@@H]2[C@H]1[C@@]2(F)C(=O)O (stereo in doubt; (+)11) please
Key: 1120

Exercise: Cool, now N[C@@]1(C(=O)O)CC(=O)[C@@H]2[C@H]1[C@@]2(F)C(=O)O (stereo in doubt; (+)-14)
Key: 0.57

Exercise: Request: N[C@@]1(C(=O)O)CC(=O)[C@@H]2[C@H]1[C@@]2(F)C(=O)O (stereo in doubt; (-)-14)
Key: 94.7

Exercise: Do the same for N[C@@]1(C(=O)O)CC[C@@H]2[C@H]1[C@@]2(F)C(=O)O (racemic) please
Key: 34.2

Exercise: What would you report for N[C@@]1(C(=O)O)CC(=O)[C@@H]2[C@H]1[C@@]2(F)C(=O)O (racemic) ?
Key: 1.26

Exercise: // query: N[C@@]1(C(=O)O)CC(O)[C@@H]2[C@H]1[C@@]2(F)C(=O)O (mixture of isomers)
Key: 21
